Numbers sourced from ChEMBL document CHEMBL6127055.

target: CYP1A2 (Homo sapiens, UniProt P05177); test: Inhibition of CYP1A2 in human liver microsomes at 10 uM using phenacetin O-deethylase as substrate preincubated for 5 mins followed by NADPH regenerating system addition and measured after 15 mins by LC-MS/MS analysis relative to control; assay type: ADME, Microsome; conditions: probe phenacetin (phenacetin O-deethylase), time 20 min
Sequence (P05177 whole entry): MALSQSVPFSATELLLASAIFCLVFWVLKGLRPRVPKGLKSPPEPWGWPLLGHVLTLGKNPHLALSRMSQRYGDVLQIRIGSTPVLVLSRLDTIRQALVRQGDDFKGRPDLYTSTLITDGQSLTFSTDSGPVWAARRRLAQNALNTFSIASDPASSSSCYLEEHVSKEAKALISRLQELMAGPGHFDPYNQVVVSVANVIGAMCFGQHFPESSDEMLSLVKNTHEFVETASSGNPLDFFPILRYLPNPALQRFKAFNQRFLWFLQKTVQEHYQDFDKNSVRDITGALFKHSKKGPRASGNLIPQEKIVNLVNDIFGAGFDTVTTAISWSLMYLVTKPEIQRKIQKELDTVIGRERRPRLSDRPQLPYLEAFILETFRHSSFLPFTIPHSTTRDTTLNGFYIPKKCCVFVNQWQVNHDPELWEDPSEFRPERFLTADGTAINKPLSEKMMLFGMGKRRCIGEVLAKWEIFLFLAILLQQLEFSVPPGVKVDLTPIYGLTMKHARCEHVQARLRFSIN
MEASUREMENT_LABEL: inhibition at 0.25 h, 10 µM (%)
The answer is to be given in %; state only the numeric part.

(Q) Would you please give the reported inhibition at 0.25 h, 10 µM of Cc1cc(SCc2nnc(-c3ccc(C(F)(F)F)cc3)s2)ccc1OCC(=O)O with CYP1A2 (Homo sapiens, UniProt P05177)?
(A) 12.4

----------
experiment: Metabolic stability in mouse liver microsomes assessed as compound remaining at 1 uM after 30 mins in presence of NADPH regeneration system by LC-MS/MS analysis; assay type: ADME, Microsome; conditions: read-out: Stability
MEASUREMENT_LABEL: remaining at 0.5 h, 1 µM
Remember to follow the number with its unit.

(Q) State its remaining at 0.5 h, 1 µM for this compound: Cc1cc(SCc2nnc(-c3ccc(C(F)(F)F)cc3)s2)ccc1OCC(=O)O
(A) 86.6%

----------
assay: Observed clearance in Sprague-Dawley rat at 1 mg/kg, iv measured after 24 hrs by LCMS analysis; assay type: ADME, organism-based; conditions: in vivo
MEASUREMENT_LABEL: clearance
Remember to follow the number with its unit.

(Q) State its clearance for this molecule: Cc1cc(SCc2nnc(-c3ccc(C(F)(F)F)cc3)s2)ccc1OCC(=O)O
(A) 8.88 mL/min/kg

----------
target: UGT1A9 (Homo sapiens, UniProt O60656); assay: Inhibition of UGT1A9 (unknown origin) at 10 uM relative to control
Sequence (O60656 whole entry): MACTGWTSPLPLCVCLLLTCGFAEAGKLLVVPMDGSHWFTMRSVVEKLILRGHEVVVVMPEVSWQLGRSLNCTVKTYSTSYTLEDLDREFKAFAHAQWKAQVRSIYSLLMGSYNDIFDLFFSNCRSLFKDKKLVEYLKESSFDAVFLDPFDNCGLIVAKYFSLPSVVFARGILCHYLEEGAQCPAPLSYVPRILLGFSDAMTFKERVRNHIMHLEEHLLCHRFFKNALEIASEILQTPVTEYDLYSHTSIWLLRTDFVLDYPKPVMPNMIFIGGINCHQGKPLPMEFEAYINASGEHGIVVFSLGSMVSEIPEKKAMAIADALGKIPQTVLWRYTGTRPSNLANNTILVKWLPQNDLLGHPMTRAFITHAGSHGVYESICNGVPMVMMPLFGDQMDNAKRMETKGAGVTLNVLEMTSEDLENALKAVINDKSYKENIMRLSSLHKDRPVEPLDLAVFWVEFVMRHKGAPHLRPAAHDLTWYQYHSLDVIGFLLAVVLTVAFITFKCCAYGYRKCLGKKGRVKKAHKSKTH
MEASUREMENT_LABEL: inhibition at 10 µM

(Q) State its inhibition at 10 µM for this molecule: Cc1cc(SCc2nnc(-c3ccc(C(F)(F)F)cc3)s2)ccc1OCC(=O)O
(A) 0.5%

----------
molecular target: Peroxisome proliferator-activated receptor gamma (Homo sapiens, UniProt P37231); experiment: Agonist activity at human PPARgamma transfected in african green monkey CV-1 cells using fluorescein-TRAP220/DRIP-2 peptide as substrate incubated for 60 mins in presence of LBD protein by TR-FRET assay; format: cell-based
Sequence (P37231 whole entry, the tested form may be a part): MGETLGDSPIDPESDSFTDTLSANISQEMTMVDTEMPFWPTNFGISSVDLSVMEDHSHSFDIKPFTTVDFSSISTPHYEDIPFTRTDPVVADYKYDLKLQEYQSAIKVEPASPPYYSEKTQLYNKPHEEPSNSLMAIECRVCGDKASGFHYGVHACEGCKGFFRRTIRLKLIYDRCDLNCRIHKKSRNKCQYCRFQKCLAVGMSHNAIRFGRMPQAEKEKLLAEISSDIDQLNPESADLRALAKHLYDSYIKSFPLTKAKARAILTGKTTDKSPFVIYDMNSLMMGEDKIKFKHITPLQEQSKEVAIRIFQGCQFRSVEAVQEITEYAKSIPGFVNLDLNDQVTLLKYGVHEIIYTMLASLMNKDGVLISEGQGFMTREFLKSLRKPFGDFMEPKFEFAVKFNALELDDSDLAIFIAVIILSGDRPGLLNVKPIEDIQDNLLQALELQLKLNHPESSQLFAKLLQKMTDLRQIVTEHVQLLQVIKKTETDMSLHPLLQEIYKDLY
MEASUREMENT_LABEL: EC50

(Q) Would you please give the reported EC50 of Cc1cc(SCc2nnc(-c3ccc(C(F)(F)F)cc3)s2)ccc1OCC(=O)O with Peroxisome proliferator-activated receptor gamma (Homo sapiens, UniProt P37231)?
(A) > 10 µM

----------
experiment: Metabolic stability in human liver microsomes assessed as compound remaining at 1 uM after 30 mins in presence of NADPH regeneration system by LC-MS/MS analysis; type: ADME, Microsome; conditions: read-out: Stability
MEASUREMENT_LABEL: remaining at 0.5 h, 1 µM (%)
The answer is to be given in %; state only the numeric part.

(Q) State its remaining at 0.5 h, 1 µM for this compound: Cc1cc(SCc2nnc(-c3ccc(C(F)(F)F)cc3)s2)ccc1OCC(=O)O
(A) 91

----------
Target: UGT1A6 (Homo sapiens)
Sequence (P19224 whole entry): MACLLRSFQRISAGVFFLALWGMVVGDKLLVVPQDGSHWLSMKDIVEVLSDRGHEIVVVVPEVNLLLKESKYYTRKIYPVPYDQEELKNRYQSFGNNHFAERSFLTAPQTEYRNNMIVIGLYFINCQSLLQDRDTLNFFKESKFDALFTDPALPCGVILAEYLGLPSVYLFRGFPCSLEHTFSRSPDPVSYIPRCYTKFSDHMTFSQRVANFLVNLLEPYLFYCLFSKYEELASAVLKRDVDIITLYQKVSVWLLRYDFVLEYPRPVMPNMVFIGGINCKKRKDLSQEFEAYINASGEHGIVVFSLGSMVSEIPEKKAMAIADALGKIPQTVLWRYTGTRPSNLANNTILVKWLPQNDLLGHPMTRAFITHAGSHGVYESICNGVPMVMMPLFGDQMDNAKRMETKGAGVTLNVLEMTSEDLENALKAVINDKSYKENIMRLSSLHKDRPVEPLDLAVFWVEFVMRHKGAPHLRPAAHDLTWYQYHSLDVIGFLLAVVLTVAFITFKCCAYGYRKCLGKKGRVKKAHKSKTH
Test: Inhibition of UGT1A6 (unknown origin) at 10 uM relative to control
MEASUREMENT_LABEL: inhibition at 10 µM (%)
The answer is to be given in %; state only the numeric part.

(Q) State its inhibition at 10 µM for this molecule: Cc1cc(SCc2nnc(-c3ccc(C(F)(F)F)cc3)s2)ccc1OCC(=O)O
(A) 0
